- Experimental target: T2_ML (Ornithodoros kalahariensis, UniProt Q8I9U1, A132G/E131N/E136D/G133S/G134A/L130S/L135D/M127Q/M129Q/V137K)
- Assay details: Isothermal titration calorimetry
Measure: Kd

- CCCCC/C=C\C[C@@H](O)/C=C/C=C/C=C\[C@@H](O)CCCC(=O)O [LTB4, leukotriene B4]: 0.012 µM

###

- Experimental target: T2_H95D (Ornithodoros kalahariensis, UniProt Q8I9U1, H114D)
- Assay details: Isothermal titration calorimetry
Measure: Kd (nM)

- CCCCC/C=C\C[C@@H](O)/C=C/C=C/C=C\[C@@H](O)CCCC(=O)O: 12

Source listed as paper PMC2613973.
